TEST_DESCRIPTION: total protein half-life in vivo (active degradation + dilution); higher = more stable protein
CONDITION_INFO: E. coli NCM3722 delta-smpB; growth: N-lim chemostat; doubling time 6 h
Please provide measured total protein half-life in vivo for the entries that follow.
Numbers only, in h.

MKKVLIAALIAGFSLSATAAETIRFATEASYPPFESIDANNQIVGFDVDLAQALCKEIDATCTFSNQAFDSLIPSLKFRRVEAVMAGMDITPEREKQVLFTTPYYDNSALFVGQQGKYTSVDQLKGKKVGVQNGTTHQKFIMDKHPEITTVPYDSYQNAKLDLQNGRIDGVFGDTAVVTEWLKDNPKLAAVGDKVTDKDYFGTGLGIAVRQGNTELQQKLNTALEKVKKDGTYETIYNKWFQK | 6.01

Now take the following sequence into account.
Can you look up the measured total protein half-life in vivo of "MKKSTLALVVMGIVASASVQAAEIYNKDGNKLDVYGKVKAMHYMSDNASKDGDQSYIRFGFKGETQINDQLTGYGRWEAEFAGNKAESDTAQQKTRLAFAGLKYKDLGSFDYGRNLGALYDVEAWTDMFPEFGGDSSAQTDNFMTKRASGLATYRNTDFFGVIDGLNLTLQYQGKNENRDVKKQNGDGFGTSLTYDFGGSDFAISGAYTNSDRTNEQNLQSRGTGKRAEAWATGLKYDANNIYLATFYSETRKMTPITGGFANKTQNFEAVAQYQFDFGLRPSLGYVLSKGKDIEGIGDEDLVNYIDVGATYYFNKNMSAFVDYKINQLDSDNKLNINNDDIVAVGMTYQF" for me? 6.18

Hey, just so you know, these numbers are from the supplement of paper PMC11246515.
